# Measured target: PTHR1 receptor
# Sequence (P25961 whole entry): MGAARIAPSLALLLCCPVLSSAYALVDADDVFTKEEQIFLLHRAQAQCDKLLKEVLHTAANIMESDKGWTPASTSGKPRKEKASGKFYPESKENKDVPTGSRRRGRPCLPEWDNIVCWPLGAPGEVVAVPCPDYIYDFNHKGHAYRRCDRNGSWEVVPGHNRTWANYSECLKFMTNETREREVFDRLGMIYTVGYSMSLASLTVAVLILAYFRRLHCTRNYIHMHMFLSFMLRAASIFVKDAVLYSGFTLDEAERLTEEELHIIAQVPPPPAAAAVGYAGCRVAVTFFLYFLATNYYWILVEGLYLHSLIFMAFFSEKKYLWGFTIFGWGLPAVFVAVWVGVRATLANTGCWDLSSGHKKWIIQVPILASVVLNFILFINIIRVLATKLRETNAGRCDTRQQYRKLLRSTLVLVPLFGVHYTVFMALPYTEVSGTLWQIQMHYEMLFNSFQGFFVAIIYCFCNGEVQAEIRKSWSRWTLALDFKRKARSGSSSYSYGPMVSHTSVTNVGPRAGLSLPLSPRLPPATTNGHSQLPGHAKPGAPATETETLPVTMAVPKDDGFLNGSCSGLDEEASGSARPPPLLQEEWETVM
* marks the point of attachment. Palmitoyl = CCCCCCCCCCCCCCCC(=O)*
Property measured: Fold Shift of EC50 (fold)

[
  {
    "Binder": "Palmitoyl-LAYFRRLHSTRNY-NH2 (SMILES CCCCCCCCCCCCCCCC(=O)N[C@@H](CC(C)C)C(=O)N[C@@H](C)C(=O)N[C@@H](Cc1ccc(O)cc1)C(=O)N[C@@H](Cc1ccccc1)C(=O)N[C@@H](CCCNC(=N)N)C(=O)N[C@@H](CCCNC(=N)N)C(=O)N[C@@H](CC(C)C)C(=O)N[C@@H](Cc1c[nH]cn1)C(=O)N[C@@H](CO)C(=O)N[C@H](C(=O)N[C@@H](CCCNC(=N)N)C(=O)N[C@@H](CC(N)=O)C(=O)N[C@@H](Cc1ccc(O)cc1)C(N)=O)[C@@H](C)O) [Compound 3]",
    "Numeric readout": 0.7
  },
  {
    "Binder": "Palmitoyl-AGRSDTRQQYRKLLFS-NH2 (SMILES CCCCCCCCCCCCCCCC(=O)N[C@@H](C)C(=O)NCC(=O)N[C@@H](CCCNC(=N)N)C(=O)N[C@@H](CO)C(=O)N[C@@H](CC(=O)O)C(=O)N[C@H](C(=O)N[C@@H](CCCNC(=N)N)C(=O)N[C@@H](CCC(N)=O)C(=O)N[C@@H](CCC(N)=O)C(=O)N[C@@H](Cc1ccc(O)cc1)C(=O)N[C@@H](CCCNC(=N)N)C(=O)N[C@@H](CCCCN)C(=O)N[C@@H](CC(C)C)C(=O)N[C@@H](CC(C)C)C(=O)N[C@@H](Cc1ccccc1)C(=O)N[C@@H](CO)C(N)=O)[C@@H](C)O) [Compound 95]",
    "Numeric readout": 19
  },
  {
    "Binder": "Palmitoyl-NGEVQAEIKKSWSR-NH2 (SMILES CCCCCCCCCCCCCCCC(=O)N[C@@H](CC(N)=O)C(=O)NCC(=O)N[C@@H](CCC(=O)O)C(=O)N[C@H](C(=O)N[C@@H](CCC(N)=O)C(=O)N[C@@H](C)C(=O)N[C@@H](CCC(=O)O)C(=O)N[C@H](C(=O)N[C@@H](CCCCN)C(=O)N[C@@H](CCCCN)C(=O)N[C@@H](CO)C(=O)N[C@@H](Cc1c[nH]c2ccccc12)C(=O)N[C@@H](CO)C(=O)N[C@@H](CCCNC(=N)N)C(N)=O)[C@@H](C)CC)C(C)C) [Compound 100]",
    "Numeric readout": 1.8
  },
  {
    "Binder": "Palmitoyl-LAYFRRLHSTRNYIH-NH2 (SMILES CCCCCCCCCCCCCCCC(=O)N[C@@H](CC(C)C)C(=O)N[C@@H](C)C(=O)N[C@@H](Cc1ccc(O)cc1)C(=O)N[C@@H](Cc1ccccc1)C(=O)N[C@@H](CCCNC(=N)N)C(=O)N[C@@H](CCCNC(=N)N)C(=O)N[C@@H](CC(C)C)C(=O)N[C@@H](Cc1c[nH]cn1)C(=O)N[C@@H](CO)C(=O)N[C@H](C(=O)N[C@@H](CCCNC(=N)N)C(=O)N[C@@H](CC(N)=O)C(=O)N[C@@H](Cc1ccc(O)cc1)C(=O)N[C@H](C(=O)N[C@@H](Cc1c[nH]cn1)C(N)=O)[C@@H](C)CC)[C@@H](C)O) [Compound 5]",
    "Numeric readout": 1
  }
]

Provenance of the data: patent US20110294738A1
